Values compiled from patent US9808466B2.

subjectOfTest: mTOR (Homo sapiens)
Construct: purchased Invitrogen PV4754
methodSummary: mTOR assay (LanthaScreen kinase activity assay)
Format: biochemical
testContext: read-out: mTOR activity, IC50 (semi-quantitative class)
pIC50: −log10 of the molar value.
Measured pIC50, listed per entry.

Recorded results for 6 compounds are shown here.
| compound | subjectOfTest | obsValue |
| --- | --- | --- |
| COc1ncc2cc1NS(=O)(=O)c1cc(c(F)cc1F)C(=O)NCc1cncc(c1)-c1ccnc3ccc-2cc13 [compound 10] | mTOR (Homo sapiens) | > 7.00 |
| CC(C)Oc1ncc2cc1NS(=O)(=O)c1cccc(c1)C(=O)NCc1cncc(c1)-c1ncnc3c1SC2=C3 [compound 50] | mTOR (Homo sapiens) | < 6.00 |
| COc1ncc2cc1NS(=O)(=O)c1cc(c(F)cc1F)C(=O)NCc1cccc(c1)-c1cnn3ccc-2nc13 [compound 67] | mTOR (Homo sapiens) | > 7.00 |
| COc1ncc2cc1NS(=O)(=O)c1cccc(c1)C(=O)NCCn1cc(cn1)-c1ncnc3ccc-2cc13 [compound 33] | mTOR (Homo sapiens) | > 7.00 |
| COc1ncc2cc1NS(=O)(=O)c1cccc(c1)C(=O)NCCn1cc(cn1)-c1cnc3ccc-2nn13 [compound 18] | mTOR (Homo sapiens) | > 7.00 |
| COc1ncc2cc1NS(=O)(=O)c1cccc(c1)C(=O)NCCCCNc1ccnc3ccc-2cc13 [compound 7] | mTOR (Homo sapiens) | < 6.00 |

Please look at the following compound next.
Query: Quick one: pIC50 for COc1ncc2cc1NS(=O)(=O)c1cccc(c1)C(=O)NCc1cncc(c1)-c1cnc3ccc-2nn13 [compound 12] ?
Result: > 7.00

* * *

methodSummary: Pharmacokinetic in BALB-c female mice, i.v. and oral
Type: in vivo
testContext: mouse, po, P.O, dose 10.00 mg/Kg, plasma, read-out: C max (maximum plasma concentration after oral administration)
Sorting guide: entries reporting Cmax beneath 3000 ng/mL go in the yes (1) pile, the rest go in the no (0) pile.

Below, 3 compounds whose answers are already recorded.
| structureSmiles | classLabel |
| --- | --- |
| COc1ncc2cc1NS(=O)(=O)c1cccc(c1)C(=O)NCc1cccc(c1)-c1cnn3ccc-2nc13 | no (0) |
| COc1ncc2cc1NS(=O)(=O)c1cc(c(F)cc1F)C(=O)NCc1cncc(c1)-c1ccnc3ccc-2cc13 | no (0) |
| COc1ncc2cc1NS(=O)(=O)c1cccc(c1)C(=O)NCCn1cc(cn1)-c1ncnc3ccc-2cc13 | yes (1) |

Query: Find out if reported Cmax for COc1ncc2cc1NS(=O)(=O)c1cccc(c1)C(=O)NCc1cccc(c1)-c1ncnc3ccc-2cc13 is less than 3000 ng/mL
Result: no (0)

Query: Find out if reported Cmax for COc1ncc2cc1NS(=O)(=O)c1cccc(c1)C(=O)NCc1cccc(c1)-c1ccnc3ccc-2cc13 is less than 3000 ng/mL
Result: no (0)

Query: Find out if reported Cmax for COc1ncc2cc1NS(=O)(=O)c1cccc(c1)C(=O)NCc1cncc(c1)-c1ccnc3ccc-2nc13 is less than 3000 ng/mL
Result: yes (1)

* * *

methodSummary: Pharmacokinetic in BALB-c female mice, i.v. and oral
Format: in vivo
testContext: mouse, plasma, po, P.O dose 3.00 mg/Kg vs I.V 1.00 mg/Kg, read-out: F % (bioavailability)
valueKind: bioavailability
I'd appreciate it if you included the unit after the number.

Query: Quick one: bioavailability for COc1ncc2cc1NS(=O)(=O)c1cccc(c1)C(=O)N1CCc3ccc(cc3C1)-c1ccnc3ccc-2cc13 [compound 39] ?
Result: 26.8%

* * *

subjectOfTest: PI3K (p110α/p85α) (Homo sapiens)
Construct: purchased Carna Biosciences 07CBS-0402A
methodSummary: PI3K activity assay (ADP Hunter Plus)
Type: biochemical
testContext: read-out: PI3K alpha activity, IC50 (semi-quantitative class)
Measured IC50, listed per entry.

Recorded results for 3 molecules are shown here.
| structureSmiles | IC50 |
| --- | --- |
| COc1ncc2cc1NS(=O)(=O)c1cccc(c1)C(=O)NCc1cc(F)cc(c1)-c1ncnc3c1SC2=C3 | > 1000 nM |
| COc1ncc2cc1NS(=O)(=O)c1cccc(c1)C(=O)NCc1cccc(c1)-c1ncnc3c1SC2=C3 | 100 to 1000 nM |
| COc1ncc2cc1NS(=O)(=O)c1cccc(c1)C(=O)NCc1cccc(c1)-c1ccnc3ccc-2cc13 | < 100 nM |

Please look at the following molecule next.
Query: Quick one: IC50 for COc1ncc2cc1NS(=O)(=O)c1cccc(c1)C(=O)NCc1cncc(c1)-c1c[nH]c3ncc-2cc13 ?
Result: < 100 nM

* * *

subjectOfTest: mTOR (Homo sapiens, UniProt P42345)
Construct: purchased Invitrogen PV4754
Sequence (P42345 1360-2549 limits assumed): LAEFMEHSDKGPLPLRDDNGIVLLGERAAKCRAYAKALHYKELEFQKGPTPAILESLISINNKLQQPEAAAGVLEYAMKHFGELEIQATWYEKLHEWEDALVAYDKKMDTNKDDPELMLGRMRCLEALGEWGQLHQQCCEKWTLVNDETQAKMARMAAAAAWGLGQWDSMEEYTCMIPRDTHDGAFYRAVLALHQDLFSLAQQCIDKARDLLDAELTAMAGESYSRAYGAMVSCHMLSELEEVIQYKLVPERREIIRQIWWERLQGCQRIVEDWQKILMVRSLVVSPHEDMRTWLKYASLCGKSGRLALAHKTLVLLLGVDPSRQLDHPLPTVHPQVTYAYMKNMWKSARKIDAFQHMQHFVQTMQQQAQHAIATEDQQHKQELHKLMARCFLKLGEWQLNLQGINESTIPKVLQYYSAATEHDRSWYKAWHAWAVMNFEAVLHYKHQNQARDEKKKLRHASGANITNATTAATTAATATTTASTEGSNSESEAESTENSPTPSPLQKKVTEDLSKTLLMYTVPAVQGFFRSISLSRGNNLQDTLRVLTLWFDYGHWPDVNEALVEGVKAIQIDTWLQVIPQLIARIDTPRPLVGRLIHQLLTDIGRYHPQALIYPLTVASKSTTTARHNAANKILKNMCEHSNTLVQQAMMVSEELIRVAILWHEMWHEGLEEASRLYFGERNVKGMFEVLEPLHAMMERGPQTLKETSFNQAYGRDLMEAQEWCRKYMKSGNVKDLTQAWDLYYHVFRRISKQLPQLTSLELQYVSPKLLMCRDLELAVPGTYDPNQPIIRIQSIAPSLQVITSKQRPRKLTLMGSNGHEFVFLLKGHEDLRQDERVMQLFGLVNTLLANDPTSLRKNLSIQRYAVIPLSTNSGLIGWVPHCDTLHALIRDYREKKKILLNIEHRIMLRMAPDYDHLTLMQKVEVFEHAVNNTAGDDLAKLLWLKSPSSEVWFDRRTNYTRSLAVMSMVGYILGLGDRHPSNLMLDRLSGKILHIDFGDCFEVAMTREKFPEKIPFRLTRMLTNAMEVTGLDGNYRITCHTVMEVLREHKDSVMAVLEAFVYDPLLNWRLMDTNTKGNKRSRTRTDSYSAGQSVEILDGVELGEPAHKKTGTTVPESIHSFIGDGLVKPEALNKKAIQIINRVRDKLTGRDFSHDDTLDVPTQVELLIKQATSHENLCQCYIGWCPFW
methodSummary: mTOR assay (LanthaScreen kinase activity assay)
Type: biochemical
testContext: read-out: mTOR activity, IC50 (semi-quantitative class)
valueKind: IC50

| structureSmiles | subjectOfTest | obsValue |
| --- | --- | --- |
| O=C1NCc2cncc(c2)-c2ncnc3c2SC(=C3)c2cnc(Cl)c(c2)NS(=O)(=O)c2cccc1c2 | mTOR (Homo sapiens, UniProt P42345) | > 1 µM |
| COc1ncc2cc1NS(=O)(=O)c1cccc(c1)C(=O)N(C)CC1CCN(CC1)c1ccnc3ccc-2cc13 | mTOR (Homo sapiens, UniProt P42345) | < 0.1 µM |
| COc1ncc2cc1NS(=O)(=O)c1cccc(c1)C(=O)NCCn1cc(cn1)-c1ncnc3c1SC2=C3 | mTOR (Homo sapiens, UniProt P42345) | > 1 µM |
| COc1ncc2cc1NS(=O)(=O)c1cccc(c1)C(=O)NCC1CCN(CC1)c1ncnc3cc-2sc13 | mTOR (Homo sapiens, UniProt P42345) | > 1 µM |

Query: Quick one: IC50 for COc1ncc2cc1NS(=O)(=O)c1cccc(c1)C(=O)NCC1=CC=C(S1)c1ncnc3c1SC2=C3C ?
Result: < 0.1 µM

Query: Quick one: IC50 for COc1ncc2cc1NS(=O)(=O)c1cccc(c1)C(=O)NCc1cccc(c1F)-c1ccnc3ccc-2cc13 ?
Result: 0.1 to 1 µM

Query: Quick one: IC50 for COc1ncc2cc1NS(=O)(=O)c1cccc(c1)C(=O)Nc1cncc(c1)-c1ncnc3c1SC2=C3 ?
Result: < 0.1 µM

Query: Quick one: IC50 for COc1ncc2cc1NS(=O)(=O)c1cccc(c1)C(=O)NCC1=CC=C(S1)c1c(C#N)cnc3c1SC2=C3 ?
Result: > 1 µM

Query: Quick one: IC50 for COc1ncc2cc1NS(=O)(=O)c1cccc(c1)C(=O)NCc1cncc(c1)-c1nc(C)nc3c1SC2=C3 ?
Result: > 1 µM

Query: Quick one: IC50 for COc1ncc2cc1NS(=O)(=O)c1cccc(c1)C(=O)NCc1cncc(c1)-c1c[nH]c3ncc-2cc13 ?
Result: 0.1 to 1 µM

Query: Quick one: IC50 for COc1ncc2cc1NS(=O)(=O)c1cccc(c1)C(=O)NCCn1cc(cn1)-c1ccnc3ccc-2cc13 ?
Result: < 0.1 µM

Query: Quick one: IC50 for COc1ncc2cc1NS(=O)(=O)c1cccc(c1)C(=O)NCc1cncc(c1)-c1cnc3ccc-2cn13 ?
Result: < 0.1 µM

Query: Quick one: IC50 for COc1ncc2cc1NS(=O)(=O)c1cccc(c1)C(=O)NCC1=CC=C(O1)c1ncnc3c1SC2=C3 ?
Result: > 1 µM

* * *

subjectOfTest: PI3K (p110α/p85α) (Homo sapiens, UniProt P42336)
Construct: purchased Carna Biosciences 07CBS-0402A
Sequence (P42336 whole entry): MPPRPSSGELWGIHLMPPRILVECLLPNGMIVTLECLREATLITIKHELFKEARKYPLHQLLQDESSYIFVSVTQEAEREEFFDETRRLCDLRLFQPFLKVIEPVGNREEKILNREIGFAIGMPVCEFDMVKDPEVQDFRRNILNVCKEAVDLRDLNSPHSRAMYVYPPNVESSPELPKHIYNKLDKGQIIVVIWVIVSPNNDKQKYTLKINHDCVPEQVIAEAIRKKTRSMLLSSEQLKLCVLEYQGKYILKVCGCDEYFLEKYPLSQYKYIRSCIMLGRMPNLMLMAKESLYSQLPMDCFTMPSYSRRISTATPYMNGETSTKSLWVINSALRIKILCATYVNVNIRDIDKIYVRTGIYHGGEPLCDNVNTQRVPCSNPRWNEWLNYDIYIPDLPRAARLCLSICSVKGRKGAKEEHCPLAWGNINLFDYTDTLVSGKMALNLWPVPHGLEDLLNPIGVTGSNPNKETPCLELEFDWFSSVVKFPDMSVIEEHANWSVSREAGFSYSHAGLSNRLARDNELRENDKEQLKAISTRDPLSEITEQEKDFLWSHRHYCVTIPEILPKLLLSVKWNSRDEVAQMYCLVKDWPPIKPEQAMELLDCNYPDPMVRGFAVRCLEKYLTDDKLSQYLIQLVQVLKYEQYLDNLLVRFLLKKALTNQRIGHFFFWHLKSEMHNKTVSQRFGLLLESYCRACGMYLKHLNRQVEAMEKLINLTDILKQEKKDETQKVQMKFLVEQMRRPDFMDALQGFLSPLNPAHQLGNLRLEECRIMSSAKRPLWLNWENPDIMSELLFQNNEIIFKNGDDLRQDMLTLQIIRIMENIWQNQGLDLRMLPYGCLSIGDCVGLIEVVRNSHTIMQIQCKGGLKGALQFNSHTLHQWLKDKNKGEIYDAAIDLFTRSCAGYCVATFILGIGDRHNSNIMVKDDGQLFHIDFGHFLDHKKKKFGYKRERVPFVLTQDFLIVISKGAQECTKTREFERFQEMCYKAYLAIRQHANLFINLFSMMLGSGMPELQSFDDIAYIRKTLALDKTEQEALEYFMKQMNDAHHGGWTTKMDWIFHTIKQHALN
Sequence (P27986 whole entry partner): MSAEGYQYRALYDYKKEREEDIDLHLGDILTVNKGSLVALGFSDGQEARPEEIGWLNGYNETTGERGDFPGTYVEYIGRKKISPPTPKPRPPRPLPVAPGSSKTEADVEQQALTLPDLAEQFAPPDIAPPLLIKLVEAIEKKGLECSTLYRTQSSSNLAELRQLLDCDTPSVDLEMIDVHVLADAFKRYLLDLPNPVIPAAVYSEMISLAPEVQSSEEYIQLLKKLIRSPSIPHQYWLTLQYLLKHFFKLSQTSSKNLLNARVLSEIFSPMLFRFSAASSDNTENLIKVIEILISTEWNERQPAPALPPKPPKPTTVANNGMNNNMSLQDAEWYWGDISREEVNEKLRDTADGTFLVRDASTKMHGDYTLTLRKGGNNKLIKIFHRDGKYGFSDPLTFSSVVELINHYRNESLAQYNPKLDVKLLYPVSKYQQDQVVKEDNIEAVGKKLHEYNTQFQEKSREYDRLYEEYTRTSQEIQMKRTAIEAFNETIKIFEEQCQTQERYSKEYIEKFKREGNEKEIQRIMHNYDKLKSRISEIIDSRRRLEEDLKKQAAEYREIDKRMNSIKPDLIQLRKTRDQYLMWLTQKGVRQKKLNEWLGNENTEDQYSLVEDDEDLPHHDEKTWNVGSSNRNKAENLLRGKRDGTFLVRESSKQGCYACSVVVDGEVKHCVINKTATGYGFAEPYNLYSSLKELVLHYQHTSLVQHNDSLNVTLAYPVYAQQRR
methodSummary: PI3K activity assay (ADP Hunter Plus)
Format: biochemical
testContext: read-out: PI3K alpha IC50 (in parentheses)
Protocol: The kinase activity was measured by using the commercial ADP Hunter™ Plus assay available from DiscoveRx (#33-016), which is a homogeneous assay to measure the accumulation of ADP, a universal product of kinase activity. […] Reaction was carried out for 1 hour at 25° C. […] Fluorescence counts were read in a Victor instrument (Perkin Elmer) with the recommended settings (544 and 580 nm as excitation and emission wavelengths, respectively). […]
Sorting guide: entries reporting IC50 beneath 20 nM go in the 1 (yes) pile, the rest go in the 0 (no) pile.

| structureSmiles | classLabel |
| --- | --- |
| COc1ncc2cc1NS(=O)(=O)c1cccc(c1)C(=O)NCc1cc(ccn1)-c1cnc3sc-2nn13 | 1 (yes) |
| COc1ccc2cc1C(=O)NCC1=CC=C(S1)c1ncnc3c1SC(=C3C)c1cnc(OC)c(c1)NS2(=O)=O | 1 (yes) |
| COc1ncc2cc1NS(=O)(=O)c1cccc(c1)C(=O)NCC1=CC=C(S1)c1ccnc3c1SC2=C3C | 0 (no) |
| COc1ncc2cc1NS(=O)(=O)c1ccc(F)c(c1)C(=O)NCC1=CC=C(S1)c1ncnc3c1SC2=C3C | 1 (yes) |
| COc1ncc2cc1NS(=O)(=O)c1ccc(Cl)c(c1)C(=O)NCC1=CC=C(S1)c1ccnc3c1SC2=C3C | 1 (yes) |

Query: Find out if reported IC50 for COc1ncc2cc1NS(=O)(=O)c1cccc(c1)C(=O)NCc1cc(F)cc(c1)-c1ncnc3c1SC2=C3C is less than 20 nM
Result: 1 (yes)

Query: Find out if reported IC50 for COc1ncc2cc1NS(=O)(=O)c1cccc(c1)C(=O)NC[C@@H]1CCN(C1)c1ncnc3c1SC2=C3C is less than 20 nM
Result: 0 (no)

Query: Find out if reported IC50 for COc1ncc2cc1NS(=O)(=O)c1ccc(Cl)c(c1)C(=O)NCC1=CC=C(S1)c1ncnc3c1SC2=C3 is less than 20 nM
Result: 0 (no)

Query: Find out if reported IC50 for COc1ncc2cc1NS(=O)(=O)c1cccc(c1)C(=O)NC[C@H]1CCN(C1)c1ncnc3c1SC2=C3C is less than 20 nM
Result: 0 (no)

Query: Find out if reported IC50 for COc1ncc2cc1NS(=O)(=O)c1cccc(c1)C(=O)NC[C@@H]1CN(CCO1)c1ncnc3c1SC2=C3C is less than 20 nM
Result: 1 (yes)
